Tested on: Klebsiella pneumoniae
EXPERIMENTAL DETAILS: Antibacterial activity against Klebsiella pneumoniae ATCC 13883 assessed as growth inhibition by broth dilution method
Assay type: functional
PROPERTY NAME: MIC
Please report the result as a number followed by the unit.

Name the recorded MIC of the item `CC[C@H](C)[C@@H](NC(=O)[C@@H](NC(=O)[C@H](CCC(=O)O)NC(=O)[C@H](Cc1ccccc1)NC(=O)[C@@H](CCN)NC(=O)[C@H](CCN)NC(=O)[C@H](CO)NC(=O)[C@@H](Cc1c[nH]c2ccccc12)NC(=O)[C@@H](CO)NC(=O)CNC(=O)[C@@H](CCN)NC(=O)[C@H](NC(C)=O)C(C)C)C(C)C)C(=O)N[C@@H](C)C(=O)O` in your answer.
50 µg/mL

Continue with the next compound.
Name the recorded MIC of the item `CCCC(=O)N[C@@H](C(=O)N[C@H](CCN)C(=O)NCC(=O)N[C@H](CO)C(=O)N[C@H](Cc1c[nH]c2ccccc12)C(=O)N[C@@H](CO)C(=O)N[C@@H](CCN)C(=O)N[C@H](CCN)C(=O)N[C@@H](Cc1ccccc1)C(=O)N[C@@H](CCC(=O)O)C(=O)N[C@H](C(=O)N[C@@H](C(=O)N[C@@H](C)C(=O)O)[C@@H](C)CC)C(C)C)C(C)C` in your answer.
25 µg/mL

----------
EXPERIMENTAL DETAILS: Hemolytic activity in rabbit erythrocytes at 83 ug/mL after 30 mins relative to control
Assay type: ADME, cell-based, Oryctolagus cuniculus, Erythrocyte
CONDITION INFO: read-out: Activity
Consider the cut-off 5%. If the recorded hemolysis at 0.5 h, 83 ug/mL is strictly smaller, the label is t; if not, the label is f.

Reference set, count: 3
Is it true that hemolysis at 0.5 h, 83 ug/mL reported for `CC[C@H](C)CC[C@@H](O)CC(=O)N[C@@H](C(=O)N[C@H](CCN)C(=O)NCC(=O)N[C@H](CO)C(=O)N[C@H](Cc1c[nH]c2ccccc12)C(=O)N[C@@H](CO)C(=O)N[C@@H](CCN)C(=O)N[C@H](CCN)C(=O)N[C@@H](Cc1ccccc1)C(=O)N[C@@H](CCC(=O)O)C(=O)N[C@H](C(=O)N[C@@H](C(=O)N[C@@H](C)C(=O)O)[C@@H](C)CC)C(C)C)C(C)C` is less than 5%?
t

Is it true that hemolysis at 0.5 h, 83 ug/mL reported for `CCCC(=O)N[C@@H](C(=O)N[C@H](CCN)C(=O)NCC(=O)N[C@H](CO)C(=O)N[C@H](Cc1c[nH]c2ccccc12)C(=O)N[C@@H](CO)C(=O)N[C@@H](CCN)C(=O)N[C@H](CCN)C(=O)N[C@@H](Cc1ccccc1)C(=O)N[C@@H](CCC(=O)O)C(=O)N[C@H](C(=O)N[C@@H](C(=O)N[C@@H](C)C(=O)O)[C@@H](C)CC)C(C)C)C(C)C` is less than 5%?
t

Is it true that hemolysis at 0.5 h, 83 ug/mL reported for `CCCCCCCCCCCC(=O)N[C@@H](C(=O)N[C@H](CCN)C(=O)NCC(=O)N[C@H](CO)C(=O)N[C@H](Cc1c[nH]c2ccccc12)C(=O)N[C@@H](CO)C(=O)N[C@@H](CCN)C(=O)N[C@H](CCN)C(=O)N[C@@H](Cc1ccccc1)C(=O)N[C@@H](CCC(=O)O)C(=O)N[C@H](C(=O)N[C@@H](C(=O)N[C@@H](C)C(=O)O)[C@@H](C)CC)C(C)C)C(C)C` is less than 5%?
f

Continuing:
Is it true that hemolysis at 0.5 h, 83 ug/mL reported for `CCCCCCCC(=O)N[C@@H](C(=O)N[C@H](CCN)C(=O)NCC(=O)N[C@H](CO)C(=O)N[C@H](Cc1c[nH]c2ccccc12)C(=O)N[C@@H](CO)C(=O)N[C@@H](CCN)C(=O)N[C@H](CCN)C(=O)N[C@@H](Cc1ccccc1)C(=O)N[C@@H](CCC(=O)O)C(=O)N[C@H](C(=O)N[C@@H](C(=O)N[C@@H](C)C(=O)O)[C@@H](C)CC)C(C)C)C(C)C` is less than 5%?
t

Is it true that hemolysis at 0.5 h, 83 ug/mL reported for `CC[C@H](C)[C@@H](NC(=O)[C@@H](NC(=O)[C@H](CCC(=O)O)NC(=O)[C@H](Cc1ccccc1)NC(=O)[C@@H](CCN)NC(=O)[C@H](CCN)NC(=O)[C@H](CO)NC(=O)[C@@H](Cc1c[nH]c2ccccc12)NC(=O)[C@@H](CO)NC(=O)CNC(=O)[C@@H](CCN)NC(=O)[C@H](N)C(C)C)C(C)C)C(=O)N[C@@H](C)C(=O)O` is less than 5%?
t

Is it true that hemolysis at 0.5 h, 83 ug/mL reported for `CC[C@H](C)[C@@H](NC(=O)[C@@H](NC(=O)[C@H](CCC(=O)O)NC(=O)[C@H](Cc1ccccc1)NC(=O)[C@@H](CCN)NC(=O)[C@H](CCN)NC(=O)[C@H](CO)NC(=O)[C@@H](Cc1c[nH]c2ccccc12)NC(=O)[C@@H](CO)NC(=O)CNC(=O)[C@@H](CCN)NC(=O)[C@H](NC(=O)OCC1c2ccccc2-c2ccccc21)C(C)C)C(C)C)C(=O)N[C@@H](C)C(=O)O` is less than 5%?
f
